Here, each record is paired with measured AUC(0-inf) data.
Assay: AUC (0 to infinity) in Sprague-Dawley rat at 5 mg/kg, po
Assay type: ADME, organism-based
Design: time infinity, dose 5 mg/kg, route oral
Conditions: plasma
// return numeric value only (unit: ng·h/mL, not printed)

INSERT INTO results (compound_string, uom, value_measured) VALUES
  ('COc1ccc2c(O[C@@H]3C[C@H]4C(=O)N[C@]5(C(=O)NS(=O)(=O)C6CC6)C[C@H]5/C=C\CCCCC[C@H](NC(=O)C5(OC)CCC5)C(=O)N4C3)cc(-c3nc(C4CC4)cs3)nc2c1C', 'ng·h/mL', 49.1);

Would you kindly look at the next entry?
Req: Supply measured AUC(0-inf) of CCN(CC)C(=O)N[C@H]1CCCCC/C=C\[C@@H]2C[C@@]2(C(=O)NS(=O)(=O)C2CC2)NC(=O)[C@@H]2C[C@@H](Oc3cc(-c4nc(C5CC5)cs4)nc4c(C)c(OC)ccc34)CN2C1=O in your reply.
Resp: 48.7
